target: recombinant PRL-3 (Homo sapiens, UniProt O75365); construct: 6xHis (N, cleaved yes); made in house; host or cells: E. coli One Shot BL21 Star; assay: In vitro phosphatase assay (DiFMUP hydrolysis), PRL-3; type: biochemical; also: test concentration or dose not given here
Sequence (O75365 whole entry): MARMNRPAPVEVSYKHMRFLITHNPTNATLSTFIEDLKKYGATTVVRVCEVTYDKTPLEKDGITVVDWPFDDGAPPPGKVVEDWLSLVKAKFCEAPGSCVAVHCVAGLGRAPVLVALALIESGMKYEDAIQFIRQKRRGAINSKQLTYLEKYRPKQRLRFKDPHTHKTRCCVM
Structures can show the parent of a compound that is named as a salt.
ENDPOINT NAME: % Phosphatase Activity (compared to DMSO) PRL-3 (%)

CN(C)CCC=C1c2ccccc2C=Cc2ccccc21 [Cyclobenzaprine HCl] = 85
CN1CCCCC1CCN1c2ccccc2Sc2ccc([S+](C)[O-])cc21 (stereo not drawn) [Mesoridazine Besylate] = 99
CN/C(=N/CCSCc1nc[nH]c1C)NC#N = 112
OC(CCN1CCCCC1)(c1ccccc1)C1CCCCC1 (stereo not drawn) [Trihexyphenidyl hydrochloride] = 106
O=C1CN(/N=C/c2ccc([N+](=O)[O-])o2)C(=O)N1 = 67
Cc1cccc(C(C)c2cnc[nH]2)c1C (stereo not drawn) [Medetomidine HCl] = 99
NCCc1ccc(O)c(O)c1 [Dopamine HCl] = 82
O=N[O-].[Na+] [Sodium Nitrite] = 75
Clc1ccc(C(Cn2ccnc2)OCc2ccsc2Cl)c(Cl)c1 (stereo not drawn) = 84
Clc1cccc(Cl)c1N=C1NCCN1 [Clonidine HCl] = 85
COC(=O)[C@H](c1ccccc1Cl)N1CCc2sccc2C1 = 81
CCCc1cc(=O)[nH]c(=S)[nH]1 = 91
Cl.c1ccc(C2CN3CCSC3=N2)cc1 (stereo not drawn) [Tetramisole HCl] = 102
OCCOCCN1CCN(C2=Nc3ccccc3Sc3ccccc32)CC1 [Quetiapine Fumarate] = 93
CC[C@H](CO)Nc1nc(NCc2ccccc2)c2ncn(C(C)C)c2n1 [Roscovitine (Seliciclib,CYC202)] = 96
CS(=O)(=O)CCNCc1ccc(-c2ccc3ncnc(Nc4ccc(OCc5cccc(F)c5)c(Cl)c4)c3c2)o1 = 121
Cc1c(-c2cnccn2)ssc1=S = 76
CNCCCC12CCC(c3ccccc31)c1ccccc12 [Maprotiline HCl] = 87
NNc1nncc2ccccc12 [Hydralazine HCl] = 87
N[C@@H](CCC(=O)N[C@@H](CS)C(=O)NCC(=O)O)C(=O)O = 112
Cl.N[C@@H]1C[C@H]1c1ccccc1 (racemic) [Tranylcypromine (2-PCPA) HCl] = 87
OCCOc1ccc(/C(=C(/CCCl)c2ccccc2)c2ccccc2)cc1 = 81
Cc1cnc(C(=O)NCCc2ccc(S(=O)(=O)NC(=O)NC3CCCCC3)cc2)cn1 [Glipizide] = 75
Oc1ccc(O)cc1 [Hydroquinone] = 70
CCOc1ccc(Cc2cc([C@@H]3O[C@H](CO)[C@@H](O)[C@H](O)[C@H]3O)ccc2Cl)cc1 = 89
Nc1ccc(S(=O)(=O)Nc2ncccn2)cc1 = 103
C1CNCCN1 = 71
